Ref: patent US11999746B2

# System under test: recombinant human Lp-PLA2 (Homo sapiens, UniProt Q13093)
# Sequence (Q13093 22-441): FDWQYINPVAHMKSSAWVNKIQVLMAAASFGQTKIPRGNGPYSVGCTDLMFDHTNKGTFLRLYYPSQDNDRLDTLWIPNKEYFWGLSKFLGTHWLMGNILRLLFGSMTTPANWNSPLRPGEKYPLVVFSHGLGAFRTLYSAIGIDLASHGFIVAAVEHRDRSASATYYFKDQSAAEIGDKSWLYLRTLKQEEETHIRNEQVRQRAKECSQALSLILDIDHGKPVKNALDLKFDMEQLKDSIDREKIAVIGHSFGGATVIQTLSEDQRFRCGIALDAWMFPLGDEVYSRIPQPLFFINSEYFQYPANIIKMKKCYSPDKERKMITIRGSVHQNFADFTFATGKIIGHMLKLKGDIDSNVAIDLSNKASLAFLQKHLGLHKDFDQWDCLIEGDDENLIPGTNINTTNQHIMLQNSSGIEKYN
# Assay name: (1a) PED6 assay, recombinant human Lp-PLA2 (rhLp-PLA2)
# Format: biochemical
# Condition notes: Examples 1-167 and 413-430 were tested here, one experiment or average of multiple experiments, read-out: rhLp-PLA2 (pIC50) (converted)
Quantity name: IC50

Example entries and their recorded answers appear below.
O=c1nc(OCc2cc(F)cc(F)c2)cc2n1C[C@@H]1CCCCN21; ≤ 100 nM
Cc1ncc(Oc2c(F)cc(COc3cc4n(c(=O)n3)C[C@H]3COCN43)cc2F)cn1; ≤ 100 nM
CN1c2cc(OCc3cc(F)c(F)cc3F)nc(=O)n2CC12CCC2; ≤ 100 nM

Ask: Fill blank: measured IC50 of the molecule O=c1nc(OCc2cc(F)c(Oc3cncc(C(F)(F)F)c3)c(F)c2)cc2n1CC1CCCCN21 (stereo not shown) is ____.
Result: ≤ 1 nM

====

# System under test: recombinant human Lp-PLA2 (Homo sapiens, UniProt Q13093)
# Assay name: (1a) PED6 assay, recombinant human Lp-PLA2 (rhLp-PLA2)
# Assay type: biochemical
# Condition notes: Examples 1-167 and 413-430 were tested here, one experiment or average of multiple experiments, read-out: rhLp-PLA2 (pIC50) (converted)
What IC50 was measured for each of the following?

Example entries and their recorded answers appear below.
O=c1nc(OCc2cc(F)c(F)c(F)c2)cc2n1CC1CCCCN21 (centres unmarked) [Example E2]; ≤ 100 nM
CN(Cc1ccc(F)cc1F)c1cc2n(c(=O)n1)C[C@@H]1CCCCN21; ≤ 100 nM
Cn1cc(Oc2ccc(COc3cc4n(c(=O)n3)C[C@H]3CCCN43)cc2F)cn1; ≤ 100 nM
O=c1nc(OCc2cc(F)c(Oc3ccnc(C(F)(F)F)c3)c(F)c2)cc2n1C[C@@H]1CCOCN21; ≤ 1 nM
CN1CCN2c3cc(OCc4cc(F)c(Oc5ccnc(C(F)(F)F)c5)c(F)c4)nc(=O)n3CC2C1 (centres unmarked); ≤ 1 nM

# batch size: 3; output IC50 per entry
1. CN1c2cc(OCc3cccc(F)c3F)nc(=O)n2CC12CCC2
2. O=c1nc(OCc2cc(F)c(F)c(F)c2)cc2n1C[C@@H]1CCCN21
3. N#Cc1cccc(COc2cc3n(c(=O)n2)CC2CCCCN32)c1 (centres unmarked)

Result:
≤ 100 nM
≤ 100 nM
≤ 100 nM
